Measured pIC50 of individual entries
- System: human kidney carcinoma cell line A498
- PROTOCOL_SUMMARY: Cell proliferation assay (WST-1), A498
- Format: cell-based
- TEST_SETTINGS: A498 cells, 48 hours treatment
pIC50: −log10 of the molar value.

Here are 5 compounds together with their reported answers.
C#CCCCC(=O)OCC(=O)O[C@@H]1C[C@]2(C(C)C)OC1(C)[C@@H]1CC[C@@H](C)[C@H]1[C@@H]2OC(=O)/C=C/c1ccccc1 [Compound 44]: 6.30 to 7.00
COCC(=O)O[C@@H]1C[C@]2(C(C)C)OC1(C)[C@@H]1CC[C@@H](C)[C@H]1[C@@H]2OC(=O)/C=C/c1ccccc1 [Compound 43]: 5.30 to 6.30
Cc1c(C(=O)O[C@H]2[C@@H]3[C@H](C)CC[C@H]3C3(C)O[C@@]2(C(C)C)C[C@H]3OC(=O)CO)ccc2c1CCCC2 [Compound 40]: > 7.52
C#CC[C@@H](O)C(=O)O[C@@H]1CC2(C(C)C)O[C@@]1(C)[C@@H]1CC[C@@H](C)[C@H]1C2OC(=O)c1ccc(C2(C(F)(F)F)N=N2)cc1 (some centres unmarked) [Compound 58]: 5.30 to 6.30
CC(C)[C@@]12C[C@@H](OC(=O)CO)C(C)(O1)[C@@H]1CC[C@@H](C)[C@H]1[C@@H]2OC(=O)C1CCc2ccccc2C1 (some centres unmarked) [Compound 37]: 7.00 to 7.52

Query: I would be grateful if you could share the reported pIC50 for CC(C)C12C[C@@H](OC(=O)[C@H](C)O)[C@@](C)(O1)[C@@H]1CC[C@@H](C)[C@H]1C2OC(=O)/C=C/c1ccccc1 (some centres unmarked) [Compound 52] .
Reply: 5.30 to 6.30

Query: I would be grateful if you could share the reported pIC50 for C#CC[C@@H](O)C(=O)O[C@@H]1CC2(C(C)C)O[C@@]1(C)[C@@H]1CC[C@@H](C)[C@H]1C2OC(=O)c1ccc2c(c1)CCCC2 (some centres unmarked) [Compound 56] .
Reply: 5.30 to 6.30

Query: I would be grateful if you could share the reported pIC50 for C#CCCCC(=O)O[C@@H]1C[C@]2(C(C)C)OC1(C)[C@@H]1CC[C@@H](C)[C@H]1[C@@H]2OC(=O)/C=C/c1ccccc1 [Compound 45] .
Reply: 5.30 to 6.30

Query: I would be grateful if you could share the reported pIC50 for C#CCOCC(=O)O[C@@H]1C[C@]2(C(C)C)OC1(C)[C@@H]1CC[C@@H](C)[C@H]1[C@@H]2OC(=O)/C=C/c1ccccc1 [Compound 46] .
Reply: 5.30 to 6.30

Query: I would be grateful if you could share the reported pIC50 for CC(C)[C@@]12C[C@@H](OC(=O)CO)C(C)(O1)[C@@H]1CC[C@@H](C)[C@H]1[C@@H]2OC(=O)c1ccc(C2(C(F)(F)F)N=N2)cc1 [Compound 41] .
Reply: 7.00 to 7.52

Query: I would be grateful if you could share the reported pIC50 for CC(C)C12C[C@@H](OC(=O)CO)[C@@](C)(O1)[C@@H]1CC[C@@H](C)[C@H]1[C@@H]2OC(=O)/C=C/c1c(F)cccc1Cl [Compound 24] .
Reply: 7.00 to 7.52

Query: I would be grateful if you could share the reported pIC50 for CC(C)C12C[C@@H](OC(=O)CO)[C@@](C)(O1)[C@@H]1CC[C@@H](C)[C@H]1[C@@H]2OC(=O)c1ccc(Cl)cc1 [Compound 29] .
Reply: 5.30 to 6.30

Query: I would be grateful if you could share the reported pIC50 for C/C(=C\C(=O)O[C@H]1[C@@H]2[C@H](C)CC[C@H]2[C@]2(C)OC1(C(C)C)C[C@H]2OC(=O)CO)c1ccccc1 [Compound 17] .
Reply: > 7.52

Sourced from patent US20140057950A1
